Measured values drawn from PubChem BioAssay AID1259375 for this set.

assay_system: Microphthalmia-associated transcription factor (Homo sapiens) (UniProt O75030)
Sequence (O75030 whole entry, looked up): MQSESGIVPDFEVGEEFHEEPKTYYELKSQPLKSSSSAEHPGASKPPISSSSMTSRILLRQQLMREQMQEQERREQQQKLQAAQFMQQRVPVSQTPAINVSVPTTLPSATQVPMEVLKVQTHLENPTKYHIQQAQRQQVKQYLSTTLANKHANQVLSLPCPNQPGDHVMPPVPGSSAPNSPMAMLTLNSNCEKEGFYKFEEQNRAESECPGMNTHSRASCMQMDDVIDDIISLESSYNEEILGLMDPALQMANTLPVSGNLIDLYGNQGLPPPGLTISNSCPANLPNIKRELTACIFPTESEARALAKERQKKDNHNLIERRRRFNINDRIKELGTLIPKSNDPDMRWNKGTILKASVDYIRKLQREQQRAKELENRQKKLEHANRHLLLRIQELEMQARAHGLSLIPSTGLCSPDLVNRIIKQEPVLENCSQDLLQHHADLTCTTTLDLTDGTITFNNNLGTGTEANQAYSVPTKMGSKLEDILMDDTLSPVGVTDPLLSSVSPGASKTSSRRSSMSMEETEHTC
run_description: MITF inhibitors by FRET titration, dose response, biochemical, high throughput (AID 1259375);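 note: FRET between CFP-tagged and YFP-tagged MITF protein partners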
run_conditions: FRET biochemical assay, MITF inhibition
Activity calls are given as the source filed them. The rule behind the calls is not given here.
Give your call using only these classes: active, inactive

Query block: // outcome(item) with item = `Cc1oc(C(=O)O)cc1CSCCSCc1cc(C(=O)O)oc1C`
Result block: inactive

Query block: // outcome(item) with item = `CC(C)C[C@@H]1NC(=O)[C@H]2CN(C(=O)NCc3ccccc3)CCN2C1=O`
Result block: inactive

Query block: // outcome(item) with item = `O=C(Nc1ccc(C(=O)Nc2ccc(C(=O)Nc3ccc(S(=O)(=O)O)c4cc(S(=O)(=O)O)cc(S(=O)(=O)O)c34)cc2)cc1)Nc1ccc(C(=O)Nc2ccc(C(=O)Nc3ccc(S(=O)(=O)O)c4cc(S(=O)(=O)O)cc(S(=O)(=O)O)c34)cc2)cc1`
Result block: inactive

Query block: // outcome(item) with item = `N/C(=N\[N+](=O)[O-])N/N=C\c1ccc(-c2ccc(O)c(C(=O)O)c2)o1`
Result block: active

---

assay_system: Microphthalmia-associated transcription factor (Homo sapiens) (UniProt O75030)
run_description: MITF inhibitors by FRET titration, dose response, biochemical, high throughput (AID 1259375);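 note: FRET between CFP-tagged and YFP-tagged MITF protein partners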
run_conditions: FRET biochemical assay, MITF inhibition
Calls of active or inactive are those of the source. How the calls were made is not given here.
Give your call using only these classes: yes = active, no = inactive

Query block: // outcome(item) with item = `NC(=O)c1cc(NC(=O)COC(=O)COc2cccc(C(F)(F)F)c2)cc(C(N)=O)c1`
Result block: no

Query block: // outcome(item) with item = `O=S(=O)(O)c1cc(S(=O)(=O)O)c2cc(O)c(S(=O)(=O)O)cc2c1`
Result block: no

Query block: // outcome(item) with item = `O=C(O)c1cc(N/N=C/c2ccc(N3CCOCC3)s2)ccc1Cl`
Result block: yes

Query block: // outcome(item) with item = O=C(OC1CCCC1=O)c1ccc(Cl)c(S(=O)(=O)N2CCOCC2)c1 (configuration not stated)
Result block: no

Query block: // outcome(item) with item = `O=C1N[C@@H](Cc2ccccc2)C(=O)N2CCN(C(=O)NCc3ccccc3)C[C@H]12`
Result block: no

Query block: // outcome(item) with item = `CN(C)CCOCCOc1ccccc1-c1ccccc1`
Result block: no

Query block: // outcome(item) with item = `c1ccc(-c2ccc(OCCCCn3cncn3)cc2)cc1`
Result block: no

Query block: // outcome(item) with item = `O=P(O)(O)C(Cl)(Cl)P(=O)(O)O`
Result block: no

Query block: // outcome(item) with item = `Cc1ccc(/C=C/C(=O)NCc2ccccn2)o1`
Result block: no

Query block: // outcome(item) with item = `O=C(CN1C(=O)NC2(CCCCCC2)C1=O)NC(=O)NCc1ccco1`
Result block: no

Query block: // outcome(item) with item = `NC(=O)n1c(CCC(=O)O)nc2sc3c(c2c1=O)CCC3`
Result block: no

Query block: // outcome(item) with item = `CNC(=O)Nc1ccc2nc(-c3ccco3)c(-c3ccco3)nc2c1`
Result block: no

Query block: // outcome(item) with item = `O=C(O)c1ccc(O)c(C=Nc2ccc(N=Cc3cc(C(=O)O)ccc3O)cc2)c1`
Result block: no

Query block: // outcome(item) with item = `O=C1CCCC2=C1C(c1ccc([N+](=O)[O-])o1)C1=C(CCCC1=O)O2`
Result block: no

Query block: // outcome(item) with item = `Cc1ccc(CCC(=O)Nc2ccc(-c3cn4c5c(nnc4n3)CCCC5)cc2)o1`
Result block: no

Query block: // outcome(item) with item = `CN(C)CCN(C(=O)OCc1ccccc1)c1cc(-c2cn[nH]c2)ccc1NC(=O)OCc1ccccc1`
Result block: no

Query block: // outcome(item) with item = `c1coc(CNc2ccc3ncc(-c4ccco4)n3n2)c1`
Result block: no

Query block: // outcome(item) with item = `O=C1N[C@@H](Cc2ccc(Cl)cc2)C(=O)N2CCN(C(=O)NCc3ccccc3)C[C@H]12`
Result block: no

Query block: // outcome(item) with item = `O=C(/C=C/c1ccco1)NCCCCNC(=O)/C=C/c1ccco1`
Result block: no

Query block: // outcome(item) with item = `Cc1cc(O)c2c(c1)Cc1cccc(O)c1C2=O`
Result block: no

Query block: // outcome(item) with item = `CC(C)C[C@H]1C(=O)N2CCN(C(=O)NC3CCCCC3)C[C@@H]2C(=O)N1C`
Result block: no

Query block: // outcome(item) with item = `CCC[C@@H]1NC(=O)[C@H]2CN(C(=O)NC3CCCCC3)CCN2C1=O`
Result block: no

Query block: // outcome(item) with item = `C=CCNC(=O)COC(=O)c1cc(-c2ccco2)nc2ccccc12`
Result block: no

Query block: // outcome(item) with item = `COc1ccc(C[C@@H]2NC(=O)[C@H]3CN(C(=O)NCc4ccccc4)CCN3C2=O)cc1`
Result block: no

Query block: // outcome(item) with item = `COc1cc(-c2ccnc(N)n2)ccc1NC(=O)[C@H]1COc2ccccc2O1`
Result block: no

Query block: // outcome(item) with item = O=C(NCC(O)C(=O)N1CCOCC1)c1cccc(Nc2ccc3[nH]ncc3c2)n1 (configuration not stated)
Result block: no

Query block: // outcome(item) with item = `O=C(O)COc1ccc(-n2cccc2)cc1`
Result block: no

Query block: // outcome(item) with item = CCC(C)C(=O)NCc1nnc2n1CCN(C/C=C/c1ccco1)CC2 (configuration not stated)
Result block: no

Query block: // outcome(item) with item = `OCCNc1cc(-c2cccs2)ncn1`
Result block: no

Query block: // outcome(item) with item = `Cc1ccc(NC(=O)COC(=O)CCC(=O)Nc2sc3c(c2C(N)=O)CCC3)cc1F`
Result block: no

Query block: // outcome(item) with item = CC(O)C(=O)N/N=C/C=C/c1ccc([N+](=O)[O-])o1 (configuration not stated)
Result block: no

Query block: // outcome(item) with item = `CCOC(=O)N1CCC(NC(=O)CCc2nc(C3=CCN(C)CC3)no2)CC1`
Result block: no
